Biological target: BACE1 ECD (as used in the enzyme activity assay) (UniProt P56817 22-457, limits assumed)
Sequence (P56817 22-457 limits assumed): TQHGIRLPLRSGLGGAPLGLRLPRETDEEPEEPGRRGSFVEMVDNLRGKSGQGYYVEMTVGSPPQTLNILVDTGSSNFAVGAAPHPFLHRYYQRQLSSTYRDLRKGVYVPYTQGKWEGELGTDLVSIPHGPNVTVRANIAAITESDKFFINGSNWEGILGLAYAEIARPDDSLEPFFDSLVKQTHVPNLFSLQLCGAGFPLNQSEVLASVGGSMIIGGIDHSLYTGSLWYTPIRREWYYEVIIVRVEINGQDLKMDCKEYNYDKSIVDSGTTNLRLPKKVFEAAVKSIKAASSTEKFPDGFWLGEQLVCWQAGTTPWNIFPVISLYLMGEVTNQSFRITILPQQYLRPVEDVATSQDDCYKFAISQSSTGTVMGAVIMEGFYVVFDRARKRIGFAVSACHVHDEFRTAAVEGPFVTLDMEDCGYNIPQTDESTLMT
Assay: cell-based or functional assay
RECORDED METRIC: EC50, FRET short substrate assay (nM)
Answer format: numeric, nM implied, no suffix.

**Query** Could you share which EC50, FRET short substrate assay value was measured for 5881 (antibody, V domains shown) VH: EVQLLESGGGLVQPGGSLRLSCAASGFTFSKYAMSWVRQAPGKGLEWVSAISGSGISTPYADSVKGRFTISRDNSKNTLYLQMNSLRAEDTAVYYCAKGAGHGSYVKGWFDPWGQGTLVTVSS VL: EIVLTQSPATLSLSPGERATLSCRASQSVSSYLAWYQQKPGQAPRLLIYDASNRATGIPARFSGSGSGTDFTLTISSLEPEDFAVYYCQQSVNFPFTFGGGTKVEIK ?
**Result** 5.93

**Query** Which EC50, FRET short substrate assay value belongs to 5880 (antibody, V domains shown) VH: EVQLLESGGGLVQPGGSLRLSCAASGFTFGSYAMTWVRQAPGKGLEWVSAISGSGISTPYADSVKGRFTISRDNSKNTLYLQMNSLRAEDTAVYYCAKGAGHGSYVKGWFDPWGQGTLVTVSS VL: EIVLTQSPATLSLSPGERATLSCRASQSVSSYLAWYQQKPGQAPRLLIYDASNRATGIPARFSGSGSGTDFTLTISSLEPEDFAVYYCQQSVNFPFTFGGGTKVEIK ?
**Result** 7.88
